- Protocol Description: Validation screen for small molecules that induce DNA re-replication in MCF 10A normal breast cells (AID 463097); note: nearly all actives have a fitted effect of over 60% in size
- Condition: MCF 10A cells, DNA re-replication phenotype imaging; series mostly up to 46.1 µM
Results filed as inconclusive are left out. The source made the active and inactive calls. Calls come from the whole dose curve; as a rule, active = well fitted activation curve with a large enough effect; inconclusive = small, poorly fitted or top-dose-only effect; inactive = flat fitted curve, though single readings scatter.
Return exactly one item of YES (active), NO (inactive)

Please indicate how the test categorized NC(=O)N1c2ccccc2C=Cc2ccccc21 .
NO

Now this one: CC(C)NCC(O)c1cc(O)cc(O)c1 (stereo not drawn)
NO

Now this one: CC(C)NNC(=O)c1ccncc1
NO

Now this one: O=C(O)CN(CCOCCOCCN(CC(=O)O)CC(=O)O)CC(=O)O
NO

Now this one: CC(N=C(NC#N)Nc1ccncc1)C(C)(C)C (stereo not drawn)
NO

Now this one: OCCN1CCN(CCCN2c3ccccc3C=Cc3ccccc32)CC1
NO

Now this one: COCCc1ccc(OCC(O)CNC(C)C)cc1 (stereo not drawn)
NO

Now this one: CCN(CC)CCNC(=O)c1cc(S(C)(=O)=O)ccc1OC
NO

Now this one: CC(=O)OCC1=C(C(=O)O)N2C(=O)[C@@H](NC(=O)Cc3cccs3)[C@H]2SC1
NO

Now this one: Nc1ncn([C@@H]2O[C@H](CO)[C@@H](O)[C@H]2O)c(=O)n1
YES

Now this one: NC(Cc1ccc(Cl)cc1)C(=O)O (stereo not drawn)
NO

Now this one: NC(=O)c1ncn([C@@H]2O[C@H](CO)[C@@H](O)[C@H]2O)c1O
NO

Now this one: C[C@]12C=CC(=O)C=C1CC[C@H]1[C@@H]3C[C@@H](O)[C@](O)(C(=O)CO)[C@@]3(C)C[C@H](O)[C@@]12F
NO

Now this one: Cc1nnc(SCC2=C(C(=O)O)N3C(=O)[C@@H](NC(=O)Cn4cnnn4)[C@H]3SC2)s1
NO

Now this one: CCn1cc(C(=O)O)c(=O)c2cc3c(cc21)OCO3
NO

Now this one: CNCCC(Oc1ccccc1OC)c1ccccc1 (stereo not drawn)
NO

Now this one: O=C(O)CN(CCN(CC(=O)O)CC(=O)O)CCN(CC(=O)O)CC(=O)O
NO

Now this one: CCCCCN(CCCCC)C(=O)C(CCC(=O)O)NC(=O)c1ccc(Cl)c(Cl)c1 (stereo not drawn)
NO

Now this one: Cc1ccc(Cl)c(Nc2ccccc2C(=O)O)c1Cl
YES

Now this one: C[C@]12CCC(=O)C=C1CC[C@@H]1[C@@H]2CC[C@@]2(C)[C@H]1CC[C@]2(O)C(=O)CO
NO

Now this one: c1ccc2c(c1)CCCC2C1=NCCN1 (stereo not drawn)
NO

Now this one: CSc1ccc(C(=O)c2[nH]c(=O)[nH]c2C)cc1
NO

Now this one: CCNC(=O)N1CCN(CCCC(c2ccc(F)cc2)c2ccc(F)cc2)CC1
NO
